Provenance of the data: patent US20230056252A1

- ASSAY TARGET: T1, CD3 expressed on cell-surface of primary human T cells (human, UniProt P07766 23-207; P04234 22-171)
- T1 construct: also called cell-surface CD3; human CD3
- T1 sequence (P07766 23-207 limits assumed, chain 1 of 2): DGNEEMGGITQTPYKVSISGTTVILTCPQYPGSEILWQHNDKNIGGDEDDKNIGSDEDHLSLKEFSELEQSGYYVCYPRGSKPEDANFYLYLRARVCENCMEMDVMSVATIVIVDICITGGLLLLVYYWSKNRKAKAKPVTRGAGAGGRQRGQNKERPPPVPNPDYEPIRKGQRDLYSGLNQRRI
- T1 sequence (P04234 22-171 limits assumed, chain 2 of 2): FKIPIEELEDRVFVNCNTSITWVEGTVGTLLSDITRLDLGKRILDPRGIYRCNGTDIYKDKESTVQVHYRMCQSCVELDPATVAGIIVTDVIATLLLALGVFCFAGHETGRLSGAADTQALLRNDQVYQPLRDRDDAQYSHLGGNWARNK
- RUN DESCRIPTION: flow cytometry competition vs murine SP34-AF488 on human T cells, n = 1
Each entry below lists one item and its recorded IC50 value.

huSP34.9.6 Fab-HF (Fab, V domains shown) VH: EVQLVESGGGLVQPGGSLRLSCAASGFTFSDYAMNWVRQAPGKGLEWVGRTRSKYNSYATYYAASVKGRFTISRDDSKNSLYLQMNSLKTEDTAVYYCVRHGNFGNSYVSWFAVWGQGTLVTVSS VL: QAVVTQPPSLTVSPGGTVTLTCGSSTGAVTTGHYANWVQQKPGQAPRGLIGGTSNRAPGVPARFSGSLSGGKAALTISGAQPEDEAEYYCALWYSARWVFGGGTKLTVL = > 20 µg/mL

// next entry
Briefly, IC50 measured for huSP34.6.6 Fab-HF (Fab, V domains shown) VH: EVQLVESGGGLVQPGGSLRLSCAASGFTFSTYAMNWVRQAPGKGLEWVGRIRSKYNNYATYYADSVKGRFTISRDNSKNTLYLQMNSLRAEDTAMYYCVRHGNFGNSYVSWFAVWGQGTLVTVSS VL: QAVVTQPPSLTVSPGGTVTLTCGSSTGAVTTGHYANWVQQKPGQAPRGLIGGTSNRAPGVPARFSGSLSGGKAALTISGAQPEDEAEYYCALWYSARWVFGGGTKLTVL : > 20 µg/mL
